Readings of drug sensitivity score for the listed compounds
system: MDA-MB-468; assay: drug sensitivity score (DSS), CellTox Green (DSS (AUC-based score)); higher = stronger drug effect (viability inhibition or cytotoxicity); extreme values may be limits of the assay; conditions: incubation time: 72 h

Example cases with answers are listed next.
# COMPOUND, SYSTEM_TESTED, OBSERVED_VALUE
rows = [
    ("Cc1c(N)nc([C@H](CC(N)=O)NC[C@H](N)C(N)=O)nc1C(=O)N[C@H](C(=O)N[C@H](C)[C@@H](O)[C@H](C)C(=O)N[C@H](C(=O)NCCc1nc(-c2nc(C(=O)NCCC[S+](C)C)cs2)cs1)[C@@H](C)O)[C@@H](OC1OC(CO)C(O)C(O)C1OC1OC(CO)C(O)C(OC(N)=O)C1O)c1cnc[nH]1 (stereo partly drawn) [Bleomycin]", "MDA-MB-468", 0),
    ("N[C@@H](Cc1ccc(N(CCCl)CCCl)cc1)C(=O)O [Melphalan]", "MDA-MB-468", 19.7),
]

Please supply the value of reported drug sensitivity score for the item `CC(C)(C)Cn1c(N)nc2ccc(-c3[nH]c(C(C)(C)C)nc3-c3ccc(F)cc3)nc21`
0
